Reference for the values: patent EP4755449A2

Biological target: T1, human latent myostatin (human, UniProt O14793 25-266; O14793 267-375)
T1 construct: non-covalent complex of two propeptides and the mature homodimer; also called human myostatin latent form
T1 sequence 1: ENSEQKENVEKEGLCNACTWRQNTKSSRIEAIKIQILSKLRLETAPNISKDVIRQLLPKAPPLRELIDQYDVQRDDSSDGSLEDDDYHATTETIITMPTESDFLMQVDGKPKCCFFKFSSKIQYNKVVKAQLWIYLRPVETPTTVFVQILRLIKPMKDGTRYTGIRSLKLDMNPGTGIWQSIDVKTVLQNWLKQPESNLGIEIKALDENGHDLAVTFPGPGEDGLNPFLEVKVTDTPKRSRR
T1 sequence 2: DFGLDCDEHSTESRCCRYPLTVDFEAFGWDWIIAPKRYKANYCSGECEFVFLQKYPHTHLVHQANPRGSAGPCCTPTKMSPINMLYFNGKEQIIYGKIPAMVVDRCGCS
Assay: SPR affinity condition pH7.4 37C
PROPERTY NAME: pKd
Give bare numbers, as −log10 of the molar value.

I have 4 binders here; please give me pKd for each one.
1. MS_M103205H781-SG1/M103202L813-SK1 (antibody, human IgG1, kappa, V domains shown, also called MS1032LO03-SG1) VH: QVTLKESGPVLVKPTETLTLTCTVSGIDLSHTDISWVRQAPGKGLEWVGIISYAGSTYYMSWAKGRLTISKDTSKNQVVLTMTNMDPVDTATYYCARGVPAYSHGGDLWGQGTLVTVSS VL: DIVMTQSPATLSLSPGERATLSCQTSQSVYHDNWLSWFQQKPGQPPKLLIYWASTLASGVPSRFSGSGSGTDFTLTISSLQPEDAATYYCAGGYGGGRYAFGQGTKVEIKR
2. MS_M103205H781-SG1/M103202L719-SK1 (antibody, human IgG1, kappa, V domains shown, also called MS1032LO02-SG1) VH: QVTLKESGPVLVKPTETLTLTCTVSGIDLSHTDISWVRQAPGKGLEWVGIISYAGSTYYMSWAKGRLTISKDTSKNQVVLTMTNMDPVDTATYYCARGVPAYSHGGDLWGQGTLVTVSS VL: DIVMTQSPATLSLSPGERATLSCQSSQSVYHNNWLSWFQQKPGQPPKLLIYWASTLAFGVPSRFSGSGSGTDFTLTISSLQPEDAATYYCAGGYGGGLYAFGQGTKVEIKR
3. MS_M103205H707-SG1/M103202L802-SK1 (antibody, human IgG1, kappa, V domains shown, also called MS1032LO04-SG1) VH: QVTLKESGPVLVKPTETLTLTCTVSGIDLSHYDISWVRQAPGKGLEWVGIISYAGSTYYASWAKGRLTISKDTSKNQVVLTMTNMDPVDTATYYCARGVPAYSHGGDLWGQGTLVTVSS VL: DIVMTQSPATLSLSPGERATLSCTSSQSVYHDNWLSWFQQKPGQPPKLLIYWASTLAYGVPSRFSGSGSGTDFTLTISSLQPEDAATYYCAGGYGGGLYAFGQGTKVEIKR
4. MS_M103205H714-SG1/M103202L861-SK1 (antibody, human IgG1, kappa, V domains shown, also called MS1032LO01-SG1) VH: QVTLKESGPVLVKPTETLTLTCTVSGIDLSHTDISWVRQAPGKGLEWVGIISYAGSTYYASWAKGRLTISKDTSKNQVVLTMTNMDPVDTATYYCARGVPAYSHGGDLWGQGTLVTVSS VL: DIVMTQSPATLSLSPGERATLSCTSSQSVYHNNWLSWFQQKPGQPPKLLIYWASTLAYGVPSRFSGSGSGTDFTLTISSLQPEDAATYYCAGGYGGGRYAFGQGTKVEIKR

Reply |
1: 8.97; 2: 8.79; 3: 9.09; 4: 9.10
